Tested on: Colo320DM cells
Test: In vitro cytotoxicity, Alamar Blue assay, Colo320DM control cell line (does not express free PSA)
Type: cell-based
Details: 72 HRS, second part of Table 2, read-out: Colo320DM EC 50
Experimental: In vitro Assay of Cytotoxicity of Peptidyl Derivatives of Vinca Drugs The cytotoxicities of the cleaveable oligopeptide-vinca drug conjugates, prepared as described in Example 3, against a line of cells which is known to be killed by unmodified vinca drug was assessed with an Alamar Blue assay. […] The cells were further incubated and the assay plates were read on a EL-310 ELISA reader at the dual wavelengths of 570 and 600 nm at 4 and 7 hours after addition of Alamar Blue. […]
Readout label: EC50 (µM)
Answers are plain numbers, in µM.

4-O-(Ac-SChgQ-SSP)-dAc-VIN: peptide-vinca drug conjugate, SEQ ID NO 116 (XXQSSP; N-acetyl; desacetylvinblastine conjugate) :: 20
4-O-[Ac-4-trans-L-HypSSChg(dQ)SSP]-dAc-VIN: peptide-vinca drug conjugate, SEQ ID NO 114 (XSSXXSSP; N-acetyl; D-Gln; desacetylvinblastine conjugate) :: 43.7

With those in mind, consider the next substance.
Return EC50 (reported value) for this substance: Ac-4-trans-L-HypSSChgQS-(4-O-Ala)-(dAc)-VIN: peptide-vinca drug conjugate, SEQ ID NO 103 (XSSXQSA; N-acetyl; desacetylvinblastine conjugate) 32.5

====

Target: free PSA (York PSA) (Homo sapiens, UniProt P07288)
Construct: purchased York ('York PSA')
Sequence (P07288 25-261): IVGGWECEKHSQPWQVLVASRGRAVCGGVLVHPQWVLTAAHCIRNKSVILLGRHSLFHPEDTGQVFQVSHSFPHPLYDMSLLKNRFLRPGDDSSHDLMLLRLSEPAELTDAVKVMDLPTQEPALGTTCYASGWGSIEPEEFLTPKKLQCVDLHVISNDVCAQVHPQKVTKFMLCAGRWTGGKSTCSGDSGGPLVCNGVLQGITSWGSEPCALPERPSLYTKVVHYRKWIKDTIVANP
Assay: Recognition of oligopeptide-vinca drug conjugates by free PSA (time to 50% cleavage, HPLC)
Assay type: biochemical
Details: conjugate to PSA molar ratio 100 to 1, pH 7.4
Readout label: Time to 50% Substrate Cleavage by York PSA (min)
One number for each entry, in min.

Consider the worked cases shown below.
Ac-4-trans-L-HypSSChgQS-(4-O-Ala)-(dAc)-VIN: peptide-vinca drug conjugate, SEQ ID NO 103 (XSSXQSA; N-acetyl; desacetylvinblastine conjugate) :: 23
4-O-(Ac-Abu-SSChgQ-SP)-dAc-VIN: peptide-vinca drug conjugate, SEQ ID NO 90 (XSSXQSP; N-acetyl; desacetylvinblastine conjugate) :: 80
Ac-AbuSSChgQ-SS-(4-O-P)-dAc-VIN: peptide-vinca drug conjugate, SEQ ID NO 109 in Table 1, 108 in Table 2 (XSSXQSSP; N-acetyl; desacetylvinblastine conjugate) :: 7
4-O-(Ac-4-trans-L-HypSSChgQSV-glycolyl)-VIN: peptide-vinca drug conjugate, SEQ ID NO 88 (XSSXQSV; N-acetyl; glycolyl linker; vinblastine conjugate) :: 8
4-O-[Ac--SChgQSS-Sar]-dAc-VIN: peptide-vinca drug conjugate, SEQ ID NO 118 (XXQSSG; N-acetyl; desacetylvinblastine conjugate) :: 39

Return Time to 50% Substrate Cleavage by York PSA (reported value) for this substance: 4-O-(Ac-4-trans-L-HypSSChgQ-SS-4-trans-L-Hyp)-dAc-VIN: peptide-vinca drug conjugate, SEQ ID NO 95 (XSSXQSSX; N-acetyl; desacetylvinblastine conjugate) 13

====

Give pEC50 for every item shown.
Tested on: Colo320DM cells
Test: In vitro cytotoxicity, Alamar Blue assay, Colo320DM control cell line (does not express free PSA)
Type: cell-based
Details: 72 HRS, second part of Table 2, read-out: Colo320DM EC 50
One number for each entry, as −log10 of the molar value.

4-O-(Ac-4-trans-L-HypSSChgQSS-Sar)-(dAc)-VIN: peptide-vinca drug conjugate, printed under SEQ ID NO 86 and 105 (XSSXQSSG; N-acetyl; desacetylvinblastine conjugate) :: 4.92
4-O-[Ac--SChgQSS-Sar]-dAc-VIN: peptide-vinca drug conjugate, SEQ ID NO 118 (XXQSSG; N-acetyl; desacetylvinblastine conjugate) :: 5.52
Ac-AbuSSChgQ-SS-(4-O-P)-dAc-VIN: peptide-vinca drug conjugate, SEQ ID NO 109 in Table 1, 108 in Table 2 (XSSXQSSP; N-acetyl; desacetylvinblastine conjugate) :: 4.55

With those in mind, consider the next substance.
Identify measured pEC50 obtained with Colo320DM cells for 4-O-[Ac-4-trans-L-HypSSChgQSS-Pip]-dAc-VIN: peptide-vinca drug conjugate, SEQ ID NO 124 (XSSXQSSX; N-acetyl; desacetylvinblastine conjugate) . 4.22

====

Test system: LNCaP prostate tumor cells
Test: In vitro cytotoxicity, Alamar Blue assay, LNCaP cell kill
Type: cell-based
Details: in 0.5% FBS, read-out: LNCaP Cell Kill EC 50 in 0.5% FBS
Readout label: EC50

Return EC50 (reported value) for this substance: 4-O-(Ac-Abu-SSChgQ-SP)-dAc-VIN: peptide-vinca drug conjugate, SEQ ID NO 90 (XSSXQSP; N-acetyl; desacetylvinblastine conjugate) > 5 µM

====

Tested on: LNCaP prostate tumor cells
Assay: In vitro cytotoxicity, Alamar Blue assay, LNCaP cell kill
Format: cell-based
Conditions: 72 HRS, second part of Table 2, read-out: LNCaP Cell Kill in 72 HRS. {48 HRS} EC 50
Readout label: EC50 (nM)
Answers are plain numbers, in nM.

Consider the worked cases shown below.
CCC1(O)CC2CN(CCc3c([nH]c4ccccc34)C(C(=O)OC)(c3cc4c(cc3OC)N(C)C3C(O)(C(=O)OC)C(OC(=O)C5CCCN5)C5(CC)C=CCN6CCC43C65)C2)C1 (stereo not drawn) [4-O-(prolyl)-dAc-VIN] :: 700
CCC1(O)CC2CN(CCc3c([nH]c4ccccc34)C(C(=O)OC)(c3cc4c(cc3OC)N(C)C3C(O)(C(=O)OC)C(OC(=O)C5CCCCN5)C5(CC)C=CCN6CCC43C65)C2)C1 (stereo not drawn) :: 700

With those in mind, consider the next compound.
Return EC50 (reported value) for this compound: CCC1(O)CC2CN(CCc3c([nH]c4ccccc34)C(C(=O)OC)(c3cc4c(cc3OC)N(C)C3C(O)(C(=O)OC)C(OC(=O)C5CCCN5C(=O)C(N)CO)C5(CC)C=CCN6CCC43C65)C2)C1 (stereo not drawn) [4-O-(SP)-dAc-VIN] 100
